Reference source: patent US20090291081A1

Target: T1, human IL-1α (human, UniProt P01583 113-271)
T1 sequence (looked up): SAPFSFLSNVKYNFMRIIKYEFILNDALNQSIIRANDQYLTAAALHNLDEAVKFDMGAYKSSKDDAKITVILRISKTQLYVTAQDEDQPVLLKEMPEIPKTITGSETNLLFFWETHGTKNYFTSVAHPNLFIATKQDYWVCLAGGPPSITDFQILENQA
Assay Notes: cell-based or functional assay
The entries below are paired with their reported IL-1α IC50.
Property Name: IL-1α IC50 (nM)

1. ABT2-108-518/ABT1-122 hu IgG1/K wt (bispecific antibody, V domains shown) VH: EVQLLESGGGLVQPGGSLRLSCAASGFTFAEYTMMWVRQAPGKGLEWVSRIGQDGKNTYYRMDVKGRFTISRDNSKNTLYLQMNSLRAEDTAVYYCAKYTGRVGVHHLFDYWGQGTLVTVSS VL: DIQMTQSPSSLSASVGDRVTITCRASQPIWTELNWYQQKPGKAPKLLIYGSSSLQSGVPRFSGSGSGTDFTLTISSLQPEDFATYYCQQFAYFPATFGQGTKVEIKR | 400
2. ABT2-108-521/ABT1-122-511 hu IgG1/K wt (bispecific antibody, V domains shown) VH: EVQLLESGGGLVQPGGSLRLSCAASGFTFAEYTMMWVRQAPGKGLEWVSRIGQDGKNTYYADSVKGRFTISRDNSKNTLYLQMNSLRAEDTAVYYCAKYTGRILGHHLFDYWGQGTLVTVSS VL: DIQMTQSPSSLSASVGDRVTITCRASQPIWTELNWYQQKPGKAPKLLIYGSSSLQRGVPSRFSGSGSGTDFTLTISSLQPEDFATYYCKQFAYFPATFGQGTKVEIKR | 150
3. ABT2-108-612/ABT1-122 hu IgG1/K wt (bispecific antibody, V domains shown) VH: EVQLLESGGGLVQPGGSLRLSCAASGFTFAEYTMMWVRQAPGKGLEWVSRIGQDGKNTYYADSVKGRFTISRDNSKNTLYLQMNSLRAEDTAVYYCAKYTGRIMGHHLFDYWGQGTLVTVSS VL: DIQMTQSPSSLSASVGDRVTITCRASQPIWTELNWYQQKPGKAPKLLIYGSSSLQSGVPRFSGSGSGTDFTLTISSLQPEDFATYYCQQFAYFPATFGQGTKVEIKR | 100
4. ABT2-108-620x/ABT1-122 huIgG1/K wt (bispecific antibody, V domains shown) VH: EVQLLESGGGLVQPGGSLRLSCAASGFTFAEESWMWVRQAPGKGLEWVSRIGQDGKNTYYREDVKGRFTISRDNSKNTLYLQMNSLRAEDTAVYYCAKYTGRIMGHHLFDYWGQGTLVTVSS VL: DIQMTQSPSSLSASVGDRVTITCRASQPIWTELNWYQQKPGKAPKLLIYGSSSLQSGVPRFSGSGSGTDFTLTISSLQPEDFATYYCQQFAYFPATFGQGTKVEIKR | 150
5. ABT2-65-8/ABT1-122 hu IgG1/K wt (bispecific antibody, V domains shown) VH: EVQLLESGGGLVQPGGSLRLSCAASGFTFEDYQMGWVRQAPGKGLEWVSSISAMGNRTYYADSVKGRFTISRDDSKNTLYLQMNSLRAEDTAVYYCAQNLVRMDSRRWMFDYWGQGTLVTVSS VL: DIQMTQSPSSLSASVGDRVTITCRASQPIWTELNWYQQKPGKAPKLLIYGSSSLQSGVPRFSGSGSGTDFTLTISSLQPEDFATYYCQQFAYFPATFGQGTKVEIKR | 1000
